Each entry below carries its reported viscosity.
- test-conditions: 350 K; 101.33 kPa; Liquid; Cone and plate viscometry
value-type: viscosity (mPa·s)

| compound | assay-result |
| --- | --- |
| CCC[n+]1ccn(C)c1C.O=S(=O)([N-]S(=O)(=O)C(F)(F)F)C(F)(F)F | 23 |
| CCn1cc[n+](C)c1.N#CN=C=[N-] [1-ethyl-3-methylimidazolium dicyanamide] | 12 |
| CCCC[N+]1(C)CCCC1.FC(F)(F)C(F)(F)[P-](F)(F)(F)(C(F)(F)C(F)(F)F)C(F)(F)C(F)(F)F | 37 |
| CCn1cc[n+](C)c1.F[B-](F)(F)F [1-ethyl-3-methylimidazolium tetrafluoroborate] | 15 |
